Molecular target: T1, IFN-αG (human, UniProt P01569 24-189)
T1 construct: also called IFN-α5; alpha G
Assay: ProteOn, one antigen concentration
property_label: Kd (nM)
Report as a plain number; the unit nM is understood.

IFWM3357 (antibody, V domains shown, VH IFWH624, VL IFWL1038; converted mAb; also called IFWB3092) VH: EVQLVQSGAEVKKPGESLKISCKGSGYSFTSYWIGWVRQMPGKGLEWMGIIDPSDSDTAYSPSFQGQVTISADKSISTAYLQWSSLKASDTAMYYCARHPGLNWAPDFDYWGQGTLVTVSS VL: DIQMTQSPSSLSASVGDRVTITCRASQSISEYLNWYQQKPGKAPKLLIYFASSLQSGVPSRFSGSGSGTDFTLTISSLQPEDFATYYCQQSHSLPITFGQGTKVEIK; 0.014

Then this binder:
Entry IFWM3329 (antibody, V domains shown, VH IFWH591, VL IFWL1067; converted mAb; also called IFWB3064) VH: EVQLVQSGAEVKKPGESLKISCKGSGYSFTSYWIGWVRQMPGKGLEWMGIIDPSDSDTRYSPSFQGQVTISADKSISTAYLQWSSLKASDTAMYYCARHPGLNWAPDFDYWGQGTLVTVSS VL: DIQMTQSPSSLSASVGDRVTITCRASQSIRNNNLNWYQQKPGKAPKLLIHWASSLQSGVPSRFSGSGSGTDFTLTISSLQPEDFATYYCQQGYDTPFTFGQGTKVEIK ; Kd = 0.061
